The measured values listed here are drawn from PubChem BioAssay AID1963841.

# pIC50 per record follows
# System: 439559-082-T-J2-PDC spheroid viability;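 further: spheroids exposed to compounds for seven days before readout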
# measurement description: Anticancer human tumor 439559-082-T-J2-PDC patient-derived colon adenocarcinoma cell line growth inhibition [POLQ]
# condition description: curve of first compound; second compound 3.16 µM; spheroids with HUVEC and MSC
pIC50: −log10 of the molar value.

compound | pIC50
C#Cc1c(F)ccc2cc(O)cc(-c3ncc4c(N5CC6CCC(C5)N6)nc(OCC56CCCN5CC(F)C6)nc4c3F)c12 (stereo unspecified) + Nc1ccc(C#CCN(C(=O)Cc2ncc(C(F)(F)F)cc2C(F)(F)F)c2ccc(F)cc2)nn1 | < 5.00
CCc1cc2c(N3CCc4c(cc(Cn5ccnc5)cc4-c4cn(C)nc4C(F)(F)F)C3=O)cc(C)nc2c(OC)n1 + Cc1cccc(N(C)C(=O)C2C(O)CCN2c2nc(C)cc(C(F)(F)F)c2C#N)c1 | < 5.00
COc1cc2cc(C(=O)CCC(=O)O)sc2cc1OC + Nc1ccc(C#CCN(C(=O)Cc2ncc(C(F)(F)F)cc2C(F)(F)F)c2ccc(F)cc2)nn1 | < 5.00
C=CCn1c(=O)c2cnc(Nc3ccc(N4CCN(C)CC4)cc3)nc2n1-c1cccc(C(C)(C)O)n1 + COC1C(OC(N)=O)C(O)C(Oc2ccc3c(O)c(NC(=O)c4ccc(O)c(CC=C(C)C)c4)c(=O)oc3c2C)OC1(C)C | < 6.00
O=C(c1cc(Cc2n[nH]c(=O)c3ccccc23)ccc1F)N1CCN(C(=O)C2CC2)CC1 + Nc1ccc(C#CCN(C(=O)Cc2ncc(C(F)(F)F)cc2C(F)(F)F)c2ccc(F)cc2)nn1 | < 5.00

API: the following record is the query input.
In: Which pIC50 reading was recorded for the compound O=c1[nH]cc(F)c(=O)[nH]1 + Cc1cccc(N(C)C(=O)C2C(O)CCN2c2nc(C)cc(C(F)(F)F)c2C#N)c1 ?
Out: < 5.00
